# Test system: LOX IMVI melanoma
# experiment: NCI tumour cell line growth inhibition, 48 h
// values below are reported TGI
value-type: TGI

> print(dat)
                                    molecule  observed
 1   CC1=C2C(=O)O[C@@H](c3ccoc3)[C@]2(C)CCC1  > 100 µM
 2                     CCOC(=O)C1(CO)CSCCSC1  > 100 µM
 3  C=CCN1C(=O)/C(=C/c2ccc(Cl)cc2)N=C1SC/C=C/C  > 100 µM
 4  COc1cccc(Nc2nc(C)c([N+](=O)[O-])c(Nc3cccc(OC)c3)n2)c1  > 100 µM
 5  O=C1c2ccccc2C(=O)C2NC(CCCCCSSCCCCCC3=NC4C(=O)c5ccccc5C(=O)C4N3)=NC12 (centres undefined)  > 100 µM
 6  COC(=O)C1=CC2C(=O)c3ccccc3C1(c1ccccc1)N2C1CCCCC1 (centres undefined)   52.3 µM
 7  CC(C)(C)c1cc(S(=O)(=O)O)c2oc(-c3ccccc3)cc(=O)c2c1  > 100 µM
 8  COc1cc(OC)c(/C=C/C(=O)c2c(OC)cccc2OC)c(OC)c1  > 100 µM
 9               O=c1cccccc1NCCCNc1cccccc1=O  > 100 µM
10             CCOC(=O)/C=C/CC(C)(C)COC(C)=O   > 10 µM
11      Cn1c(-c2cccs2)cc(-c2cccs2)c1-c1cccs1  > 100 µM
12  C/C(Cl)=N/OC(=O)Nc1ccc(F)c([N+](=O)[O-])c1   18.5 µM
13  CCN(CC)CCCC(C)Nc1c(C)cnc2cc(Cl)c(C)cc12 (centres undefined)   10.7 µM
14  O=c1[nH]c2cccc([N+](=O)[O-])c2c(=O)n1-c1ccc(Cl)cc1   59.5 µM
15  COc1ccc(C(=O)c2cc(C)c(OC)c(C)c2)c(OC)c1N(C(=O)C(Cl)Cl)C(=O)C(Cl)Cl  > 100 µM
16  C[C@]12CCC(O)CC1=CC[C@@H]1[C@@H]2CC[C@]2(C)C(O)[C@H](n3ccnc3)C[C@@H]12 (some centres undefined)  > 100 µM
17  CC1CN1CC(O)C(O)CN1CC1C (centres undefined)   11.4 µM
18  Cc1nc(N)c(N2CCN(S(N)(=O)=O)CC2)c(=O)[nH]1  > 100 µM
19  CCC1CN2CCc3cc(OC)c(OC)cc3C2CC1CC1c2cc(OC)c(OC)cc2CCN1C(=O)C(N)Cc1ccccc1 (centres undefined)   10.9 µM

----------
# Test system: OVCAR-3 ovarian
# experiment: NCI tumour cell line growth inhibition, 48 h
Quick rule: TGI of at least 40 µM means y, below that means n.

compound	assay-system	assigned-label
CC1=C(C)CC2(CCCCC2=O)S(=O)C1 (stereo unspecified)	OVCAR-3 ovarian	y
CCOC(=O)CN=c1nc(SC)sc2c(C(=O)OCC)nc(Sc3ccccc3)n12	OVCAR-3 ovarian	y
CC(=O)OC1Oc2ccccc2-c2oc(=O)c(-c3cc4ccc(N(C)C)cc4oc3=O)cc21 (stereo unspecified)	OVCAR-3 ovarian	n
CCC#CC[C@H]1C/C=C2/C(=O)C=C[C@@H]2C/C=C\CCCC(=O)O1	OVCAR-3 ovarian	n
NCc1ccc(-c2ccc(CN)s2)s1	OVCAR-3 ovarian	y
Cc1ccc(S(=O)(=O)NC(=O)NCc2ccc(S(N)(=O)=O)cc2)cc1	OVCAR-3 ovarian	y
Fc1cc(F)c(COc2cc(Cn3cnc4c(Cl)nc(Cl)nc43)ccc2C23CC4CC(CC(C4)C2)C3)cc1F	OVCAR-3 ovarian	n
O=C(N/N=C/c1cccc(O)c1O)c1ccccc1	OVCAR-3 ovarian	y
N=c1c2ccccc2nc2oc3cc([N+](=O)[O-])ccc3n12	OVCAR-3 ovarian	y
C/C(Cl)=N/OC(=O)Nc1ccc(F)c([N+](=O)[O-])c1	OVCAR-3 ovarian	n
